test: S16 Schwann cell PMP22 intronic element beta-lactamase assay (AID 624044); settings: S16 rat Schwann cells, PMP22 element beta-lactamase FRET, 24 h; series mostly up to 38.3 µM; also: nearly all actives have a fitted effect of over 15% in size; also: potency is read from the fitted curve at half-maximal effect
Results filed as inconclusive are left out. Activity calls are given as the source filed them. Calls follow the shape of the full dose curve.
measuredParameter: Potency

Using the record for "C=C(Nc1ccc(OCC)cc1)Nc1ccc(OCC)cc1" , report its Potency.
inactive

For the compound "CCCCCCCCCCCCCCCCCC(=O)O" , what Potency is on record?
inactive

Look up Potency for this compound: "Oc1c(Br)cc(Br)c2cccnc12"
19.9 µM (active)

###

test: qHTS assay for measurement of the activity of small molecule inhibitors on Zika virus induced Caspase-3 activity in human iPSC derived neural progenitor cells (hNPCs) (AID 1224857); conditions: hNPCs ZIKV-induced caspase-3/7, Caspase-Glo luminescence, 6 h; series mostly up to 45.7 µM; also: % of control where 0% means no effect; nearly all actives have a fitted effect of over 65% in size
Results filed as inconclusive are left out. The source made the active and inactive calls. Calls follow the shape of the dose curve; as a rule, active = well fitted inhibition curve with a large enough effect; inconclusive = small, poorly fitted or top-dose-only effect; inactive = no such curve, though single readings can be large or run the other way.
measuredParameter: outcome

Some solved cases for reference:
Quick one: outcome for S=C(S)OC1CC2CC1C1CCCC21 (stereo not given) ?
inactive

Find the recorded outcome belonging to "COCCOc1cc2ncnc(Cl)c2cc1OCCOC" and report it.
inactive

For the compound shown here, NC(=O)C1=CN(C2OC(COP(=O)(O)OP(=O)(O)OC[C@H]3O[C@@H](n4cnc5c(N)ncnc54)[C@H](OP(=O)(O)O)C3O)C(O)C2O)C=CC1 (stereo not given in full) , give the reported outcome.
inactive

Given the entry COc1ccc2c(c1)CCC1C2CC[C@@]2(C)C1CC[C@@H]2NCCCCCCN1C(=O)CCC1=O (stereo not given in full) , report its measured outcome.
inactive

Item "Cn1c(=O)c2[nH]c(-c3ccccc3)nc2n(C)c1=O" has what recorded outcome?
inactive

More entries:
Given "CN(CCCOc1ccc(Cc2ccccc2)cc1)CCC(=O)O" , state its recorded outcome.
inactive

Could you share which outcome value was measured for "CN[C@H](CC(C)C)C(=O)N[C@H]1C(=O)N[C@@H](CC(N)=O)C(=O)N[C@H]2C(=O)N[C@H]3C(=O)N[C@H](C(=O)N[C@H](C(=O)O)c4cc(O)cc(O)c4-c4cc3ccc4O)[C@H](O)c3ccc(c(Cl)c3)Oc3cc2cc(c3O[C@@H]2O[C@H](CO)[C@@H](O)[C@H](O)[C@H]2O[C@H]2C[C@](C)(N)[C@H](O)[C@H](C)O2)Oc2ccc(cc2Cl)[C@H]1O" ?
inactive

Sample "NCCCCCCCCCCN" — what was its outcome?
inactive

###

test system: CP252; assay: qHTS profiling for inhibitors of Plasmodium falciparum proliferation (AID 504749); also: nearly all actives have a fitted effect of over 60% in size; settings: P. falciparum in erythrocytes, SYBR Green DNA, 72 h; series mostly up to 28.7 µM
Records with an inconclusive call do not appear. The source made the active and inactive calls. The call rests on the fitted dose curve; in most records, active means well fitted inhibition curve with a large enough effect; inconclusive means small, poorly fitted or top-dose-only effect; inactive means flat fitted curve, though single readings scatter.
Could you please pick one outcome from this set? yes (active), no (inactive)

Observe how each entry below is paired with its result.
For "CC1(C)C[C@@H]1C(=O)N/C(=C\CCCCSC[C@H](N)C(=O)O)C(=O)O" , what call appears in the results of this test?
no

Look up the recorded call for "O=C(O)[C@H](CC(=O)N1C[C@H]2CCCC[C@H]2C1)Cc1ccccc1" in this test.
no

Record request — test call for "Cc1[nH]cnc1CN1CCc2c(c3ccccc3n2C)C1=O"
no

How did this test come out for "N=c1ccn2c(n1)O[C@H]1[C@H](O)[C@@H](CO)O[C@H]12" ?
no

Which outcome was assigned to "[O-][n+]1ccccc1SSc1cccc[n+]1[O-]" in this test?
yes

Next:
Tell me the assay call for "c1ccc2sc(SN3CCOCC3)nc2c1" please.
no

Entry "CCCCC[C@H](O)/C=C/[C@@H]1[C@@H](C/C=C\CCCC(=O)O)[C@@H](O)C[C@H]1O" : call = ?
no

What outcome does the record of this test show for "Nc1ccc(O)c(C(=O)O)c1" ?
no

Please share the test call associated with "O=C1CN(/N=C/c2ccc(-c3ccc([N+](=O)[O-])cc3)o2)C(=O)N1" .
no

Hello, I am checking results. What call was entered for "Nc1ccc(C(=O)O)c(O)c1" ?
no

Returns: the outcome recorded for C=CC(N)CCC(=O)O (stereo unspecified) in this assay.
no

// return assay outcome for "Cc1ccc(O)c(-n2nc3ccccc3n2)c1"
no

Which outcome did this test record for the compound "CCOc1ccc2nc(S(N)(=O)=O)sc2c1" ?
no

Which result was noted for this compound in the test: "CC1(C)[C@@H](O)CC[C@]2(C)[C@H]3C(=O)C=C4[C@@H]5C[C@@](C)(C(=O)O)CC[C@]5(C)CC[C@@]4(C)[C@]3(C)CC[C@@H]12"
no

Status in this test for "C=C(Nc1ccc(OCC)cc1)Nc1ccc(OCC)cc1" ?
no

// outcome(item) with item = "O=C(O)c1ccccc1Nc1cccc(C(F)(F)F)c1"
no

###

test: qHTS assay for small molecule antagonists of retinoid X receptor alpha signaling (AID 588546); conditions: HEK293T RXRa-UAS-bla, beta-lactamase ratio, antagonist mode; measured here: W530 green channel, cytotoxicity proxy;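 also: cells stimulated with 9-cis-retinoic acid as agonist; % is scaled to controls: 0 for no effect and ±100 for the full control effect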
Results filed as inconclusive are left out.
measuredParameter: max response (%)
State the answer as a number, implicitly in %.

Study these solved cases before continuing.
Which max response reading was recorded for the compound "O=C(O)[C@H](O)[C@@H](O)[C@H](O)[C@H](O)CO" ?
-7.65

What value of max response has been recorded for this entry: "O=C(O)/C=C\C(=O)O"
0.438

Entry "CC(C)OC(=O)c1cc(C(=O)OC(C)C)cc([N+](=O)[O-])c1" has what max response?
-0.986

Suppose we examine the compound "O=C(OCc1ccccc1)c1ccccc1" ; what max response value has been reported?
-18.5

---
For the compound shown here, "Nc1cc(-c2ccncc2)c[nH]c1=O" , give the reported max response.
-6.03

###

System: KB-3-1
Assay: Cytotoxic Profiling of Annotated Libraries Using Quantitative High-Throughput Screening (AID 1296008); also: % is scaled to controls: 0 for no effect and ±100 for the full control effect; nearly all actives have a fitted effect of over 60% in size
Conditions: Five cell lines viability, CellTiter-Glo ATP luminescence, 48-72 h; stronger effect = lower value
Description: Cell-based phenotypic screening is a commonly used approach to discover biological pathways, novel drug targets, chemical probes and high-quality hit-to-lead molecules. […] A pintool (Kalypsys) was used to transfer 23 nL of compound solution to the 1536-well assay plates. […] Plates were left at room temperature for 10 min before imaging the ATP-coupled luminescence using a ViewLux microplate imager (PerkinElmer, Waltham, MA).
Records with an inconclusive call do not appear.
measuredParameter: max response (%)
API: value field is a number in %; no unit string.

Here are 3 molecules together with their reported answers.
Any idea what its max response is? The molecule is "C=CCCCCCCCCC(=O)O"
1.18

Requested field: max response. Item: "COc1cc2c3cc1Oc1cc(ccc1O)C[C@@H]1c4c(cc(OC)c(O)c4Oc4ccc(cc4)C[C@@H]3N(C)CC2)CC[N+]1(C)C"
-2.77

Query (molecule): "COc1cc(CNC(=O)CCCC/C=C/C(C)C)ccc1O" ; field requested: max response
-0.699

More entries:
Name the recorded max response for "O=C(Nc1ccc2[nH]ncc2c1)C1CCC1" .
-1.12

Please look up its max response: "NCCO"
-25.6

Request the reported max response associated with "Fc1ccc2[nH]c(CN3CCN(c4ccccn4)CC3)cc2c1"
-22.6

What max response value was documented for this molecule, "CCCC(=O)OC[C@@H](OC(=O)CCC)[C@@H](OC(=O)CCC)[C@H](Cn1c2nc(=O)[nH]c(=O)c-2nc2cc(C)c(C)cc21)OC(=O)CCC" ?
23.7

# max response lookup, item "CC(C)Cc1ccc([C@H](C)C(=O)O)cc1"
-10.1

Param item = "Nc1ccc([N+](=O)[O-])cc1O" ; retrieve measured max response.
10.6

###

target: D(1A) dopamine receptor (Homo sapiens); assay: HTS Assay for Allosteric Agonists of the Human D1 Dopamine Receptor: Primary Screen for Agonists (AID 488981); settings: Inducible HEK293 T-REx D1 cells, calcium-flux fluorescence, 180 s kinetic; series mostly up to 41.8 µM; as to activation: 0% is about no effect
Results filed as inconclusive are left out. Activity calls are given as the source filed them. The call rests on the fitted dose curve; in most records, active means well fitted activation curve with a large enough effect; inconclusive means small, poorly fitted or top-dose-only effect; inactive means flat fitted curve, though single readings scatter.
Pick one: label 1 = active, label 0 = inactive

Reference set, count: 3
Recorded call for "Fc1ccc(C(OCCCc2cnc[nH]2)c2ccc(F)cc2)cc1" ?
label 0

// return assay outcome for "NCCCCCCCCCCN"
label 0

Recorded call for "CN(C)c1ccc(/C=C2\C(=O)Nc3ccccc32)cc1" ?
label 0

Continuing:
Dear all, I need the recorded test outcome for "CC1(C)CCC=[N+]1[O-]" , thank you.
label 0

Recorded call for OCC1O[C@H](O)C(Cl)C(O)C1O (stereo partly drawn) ?
label 0

Just curious, what result did "COc1ccccc1N1CCN(CCN(C(=O)c2ccc(I)cc2)c2ccccn2)CC1" get here?
label 0

Which outcome did this test record for the compound "CSc1nc(N)c2ncn([C@@H]3O[C@H](COP(=O)(O)OP(=O)(O)OP(=O)(O)O)[C@@H](O)[C@H]3O)c2n1" ?
label 1

Test call, this compound: "CN1CCc2cc(NC(=O)Nc3cccnc3)ccc21"
label 0

Answer briefly: the call reported for "COC(=O)c1c(C)[nH]c(C)c1C(=O)c1ccccc1Cc1ccccc1" in this assay.
label 0

Called result for "O=C(O)CCCC[C@@H]1CCSS1"
label 0

Test call for this compound, please: "N#C/C(=C\c1ccc(O)c(O)c1)C(=O)NCc1ccccc1"
label 0

Origin of values: PubChem BioAssay (NCATS)
